Test System: CTSC in U937 cells (Homo sapiens (Human))
Sequence (P53634 25-463): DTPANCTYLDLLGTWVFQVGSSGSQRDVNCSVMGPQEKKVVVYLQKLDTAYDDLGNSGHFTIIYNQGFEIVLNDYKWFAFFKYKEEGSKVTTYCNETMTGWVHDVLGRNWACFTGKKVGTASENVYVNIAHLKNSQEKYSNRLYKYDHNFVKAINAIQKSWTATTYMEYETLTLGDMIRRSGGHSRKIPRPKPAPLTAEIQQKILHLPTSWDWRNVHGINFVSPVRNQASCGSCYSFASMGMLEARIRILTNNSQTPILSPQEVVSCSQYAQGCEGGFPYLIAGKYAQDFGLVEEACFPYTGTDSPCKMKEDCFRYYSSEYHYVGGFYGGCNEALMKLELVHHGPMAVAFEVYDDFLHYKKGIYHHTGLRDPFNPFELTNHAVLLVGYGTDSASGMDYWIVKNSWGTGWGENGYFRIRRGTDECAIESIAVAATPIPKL
Assay Explanation: Intracellular CTSC inhibition assay (in vitro), LLOMe-induced cell death in U937 cells
Assay type: cell-based
Condition Summary: 3 hours culture, CellTiter-Glo
Description: 2. Intracellular CTSC Inhibition Assay (In Vitro) A test specimen was evaluated by a degree of cell death in a case where a substrate LLOMe (L-Leucyl-L-Leucine methyl ester, hydrobromide salt, Sigma, 555045152) was added to U937 cells. […] Therefore, since the degree of cell death correlates with an amount of degradation of LLOMe, that is, with CTSC activity, by quantitatively analyzing the cell death, CTSC inhibitory activity of the test specimen in the cell was determined. […]
Label Yes when IC50 < 6 nM; otherwise No.

# count of solved cases: 6
Line Notation: O=C([C@@H]1C[C@@H](O)C2(CCC2)CN1)N1CCC(c2nnn(Cc3ccccc3)n2)CC1
Group: No

Line Notation: O=C([C@@H]1C[C@@H](O)C2(CCC2)CN1)N1CCC(c2nnn(C3CC(F)(F)C3)n2)(C(F)(F)F)CC1
Group: Yes

Line Notation: Cc1cnn(C2(c3noc(C4CC(F)(F)C4)n3)CCN(C(=O)[C@@H]3C[C@@H](O)C4(CCC4)CN3)CC2)c1
Group: Yes

Line Notation: O=C([C@@H]1C[C@@H](O)C2(CCC2)CN1)N1CCC(c2noc(C3CC(F)(F)C3)n2)(C2CC2)CC1
Group: Yes

Line Notation: O=C([C@@H]1C[C@@H](O)C2(CCC2)CN1)N1CCC(c2ccc(F)cn2)(c2noc(C3CC(F)(F)C3)n2)CC1
Group: Yes

Line Notation: O=C([C@@H]1C[C@@H](O)C2(CCC2)CN1)N1CCC(C(=O)N2CCOC3(CC3)C2)(C(F)(F)F)CC1
Group: No

Query molecule follows.
Exercise: Consider the molecule `O=C([C@@H]1CC[C@@]2(CCO2)CN1)N1CCC(c2noc(C3CCC(F)(F)CC3)n2)(C(F)(F)F)CC1` . Is its IC50 strictly less than 6 nM?
Solution: Yes
